Sourced from the RNAGym collection of RNA variant scans (doi:10.7554/elife.90254)

B1: LINE1-mini (parent)
chain: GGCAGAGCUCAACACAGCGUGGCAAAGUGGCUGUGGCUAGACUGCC

Variants of: B1
measurementDescription: self-cleavage, relative activity (ratio to wild type); higher = more cleavage; in vitro, sequencing; the parent is a self-cleaving ribozyme
// classify(record): look up self-cleavage in ranges lower range (below 0.06), middle range (0.06 to below 0.2), upper range (0.2 or more)

Here's what some known entries look like.
Which bin, given its self-cleavage, does GGCAGAGCUCAACACAGCGUGGAAAAGUGGCUGUGGCUAGACUGAC occupy? upper range

Which bin, given its self-cleavage, does GGCAGAGCUCAACACAGCGUGGCAAAGUGGUUGUGGCUAGGCUGCC occupy? lower range

Which bin, given its self-cleavage, does GGCAGAGCUCAUCACAGCGUGGCAAAGUGGCUGUGGCUAGACCGCC occupy? middle range

Which bin, given its self-cleavage, does GGCAGAGCUCAACACGGCGUGGCAAAGUGGCUGUGGCUAGACCGCC occupy? lower range

Next:
Which bin, given its self-cleavage, does GGCAGAACUCAACACAGCGUGGCAGAGUGGCUGUGGCUAGACUGCC occupy? middle range

Which bin, given its self-cleavage, does GGCAGAGCUCAACACAGCGUGGCAGAGUGGCUGUGGCUAGACUGCA occupy? upper range

Which bin, given its self-cleavage, does GGCAGAGCUCAACACAGCGUGGAAAAGUGACUGUGGCUAGACUGCC occupy? upper range

Which bin, given its self-cleavage, does GGCAGAGCUCAACACAGCGUGGCUAAGUGGCUGUGGCCAGACUGCC occupy? upper range

Which bin, given its self-cleavage, does GGCAGAGCUCAACACAGCGUGGCAAAGUAGCUGUCGCUAGACUGCC occupy? middle range

Which bin, given its self-cleavage, does GGCAGAGCUCAACACAGCGUGGCCAAGUGGCUGUGGCUGGACUGCC occupy? middle range

Which bin, given its self-cleavage, does GGCAGAGCUCAAGACAGCGUGGCAAAGAGGCUGUGGCUAGACUGCC occupy? upper range
